SYSTEM: human glucagon receptor (human) (UniProt P47871)
Sequence (P47871 26-477): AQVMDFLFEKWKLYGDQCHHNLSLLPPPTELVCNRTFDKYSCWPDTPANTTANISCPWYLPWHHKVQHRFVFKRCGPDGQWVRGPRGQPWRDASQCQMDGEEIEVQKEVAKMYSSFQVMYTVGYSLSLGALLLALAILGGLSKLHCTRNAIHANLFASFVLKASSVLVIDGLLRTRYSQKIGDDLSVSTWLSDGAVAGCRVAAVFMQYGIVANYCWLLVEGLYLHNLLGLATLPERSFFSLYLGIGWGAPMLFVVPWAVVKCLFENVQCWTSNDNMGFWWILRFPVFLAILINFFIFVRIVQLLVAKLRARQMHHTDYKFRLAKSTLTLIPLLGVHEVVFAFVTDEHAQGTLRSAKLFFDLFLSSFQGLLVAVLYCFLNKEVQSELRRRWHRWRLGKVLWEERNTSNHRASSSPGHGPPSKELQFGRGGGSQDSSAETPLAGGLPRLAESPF
EXPERIMENT: cell-based or functional assay
cAMP Rel EC50, nM (1% HSA) values by entry
Reply numerically in nM, unit not repeated.

Known results for binders:
YXQGTFTSDFSXXLDKKAQXAFIEYLLEXGPSSXAPPPSGS (acylated; synthetic construct; SITE 2: note = 2-Aminoisobutyric Acid; SITE 12: note = L-ornithine; SITE 13: note = alpha-methyl-leucine; SITE 17: note = Lysine is chemically modified through conjugation of the epsilon-amino group of the Lysine side chain with (2-[2-(2-Amino-ethoxy)-ethoxy]-acetyl)-(gamma-Glu)) [Example 238]    334
YXQGTFTSDFSKXLDKKAQXAFIEYLIEGGESSGAPPPSGS (acylated; synthetic construct; SITE 2: note = 2-Aminoisobutyric Acid; SITE 13: note = alpha-methyl-leucine; SITE 17: note = Lysine is chemically modified through conjugation of the epsilon-amino group of the Lysine side chain with (2-[2-(2-Amino-ethoxy)-ethoxy]-acetyl)-(gamma-Glu)-CO-(CH2) 16-CO2H; SITE 20: n) [Example 215]    1510
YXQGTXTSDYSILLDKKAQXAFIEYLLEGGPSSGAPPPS (synthetic construct; SITE 2: note = 2-Aminoisobutyric Acid; SITE 6: note = alpha-methyl-L-phenylalanine; SITE 17: note = Lysine is chemically modified through conjugation of the epsilon-amino group of the Lysine side chain with (2-[2-(2-Amino-ethoxy)-ethoxy]-acetyl)2-(gamma-Glu)-CO-(CH2 )16-CO2H; SI) [Example 419]    1650
YXQGTFTSDXSXXLDKKAQXAFIEXLIEXGPSSGEPPPSGS (Aib, 4Pal, Orn, αMeL, Me4Pal, acylated K, C-terminal amide; synthetic construct; SITE 2: note = 2-Aminoisobutyric Acid; SITE 10: note = 3-(4-Pyridyl)-L-alanine; SITE 12: note = L-ornithine; SITE 13: note = alpha-methyl-leucine; SITE 17: note = Lysine is chemically modified through conjugation of the epsilon-amino group of the Lysine side chain with (2-[2-(2-) [Example 987]    267
YXQGTFTSDXSXXLDXKAQXXFIEYLLAGGPSSGAPPPSGSEE (non-natural residues; C18 diacid-(γ-Glu)2 acyl on Lys; C-terminal amide; synthetic construct; SITE 2: note = 2-Aminoisobutyric Acid; SITE 10: note = 3-(4-Pyridyl)-L-alanine; SITE 12: note = L-ornithine; SITE 13: note = alpha-methyl-leucine; SITE 16: note = L-ornithine; SITE 17: note = Lysine is chemically modified through conjugation of the epsilon-amino group of the Lys) [Example 1004]    237
YXQGTFTSDXSQXLDXKAQXEFIEXLLAGGPSSGAPPPSGSEE (Aib, 4Pal, αMeL, Orn, Me4Pal, αMeY; γGlu2-C18 diacid Lys; amide; synthetic construct; SITE 2: note = 2-Aminoisobutyric Acid; SITE 10: note = 3-(4-Pyridyl)-L-alanine; SITE 13: note = alpha-methyl-leucine; SITE 16: note = L-ornithine; SITE 17: note = Lysine is chemically modified through conjugation of the epsilon-amino group of the Lysine side chain with (gamma-Gl)) [Example 999]    2130

Ask | GET /values?readout=cAMP Rel EC50, nM (1% HSA)&item= YXQGTFTSDXSXXLDXKAQXXFIEXLIAGGPSSGAPPPSGSEE (Lys acylated with (γGlu)2-C18 diacid; non-natural residues; C-amide; synthetic construct; SITE 2: note = 2-Aminoisobutyric Acid; SITE 10: note = 3-(4-Pyridyl)-L-alanine; SITE 12: note = L-ornithine; SITE 13: note = alpha-methyl-leucine; SITE 16: note = L-ornithine; SITE 17: note = Lysine is chemically modified through conjugation of the epsilon-amino group of the Lys) [Example 994]
Reply | 1050

Ask | Request: YXQGTFTSDXSXXLDXKAQXAFIEXLIEXGPSSGEPPPSGS (Aib, 4Pal, Orn, Me4Pal, lipidated Lys, C-terminal amide; synthetic construct; SITE 2: note = 2-Aminoisobutyric Acid; SITE 10: note = 3-(4-Pyridyl)-L-alanine; SITE 12: note = L-ornithine; SITE 13: note = alpha-methyl-leucine; SITE 16: note = L-ornithine; SITE 17: note = Lysine is chemically modified through conjugation of the epsilon-amino group of the Lys) [Example 991]
Reply | 405

Ask | Request: YXQGTFTSDXSRXLDKKAQXAFIEYLIEXGESSGAPPPSGE (acylated; synthetic construct; SITE 2: note = 2-Aminoisobutyric Acid; SITE 10: note = 3-(4-Pyridyl)-L-alanine; SITE 13: note = alpha-methyl-leucine; SITE 17: note = Lysine is chemically modified through conjugation of the epsilon-amino group of the Lysine side chain with (2-[2-(2-Amino-ethoxy)-ethoxy]-acetyl)) [Example 225]
Reply | 561

Ask | Request: YXQGTXTSDYSIXLDKKAQXAFIEYLEEGGPSSGAPPPS (synthetic construct; SITE 2: note = 2-Aminoisobutyric Acid; SITE 6: note = alpha-methyl-2-fluoro-L-phenylalanine; SITE 13: note = alpha-methyl-leucine; SITE 17: note = Lysine is chemically modified through conjugation of the epsilon-amino group of the Lysine side chain with (2-[2-(2-Amino-ethoxy)-et)) [Example 421]
Reply | 468

Ask | Request: YXQGTXTSDYSIXLDKKAQXAFIEYLLETGPSSGAPPPSEG (synthetic construct; SITE 2: note = 2-Aminoisobutyric Acid; SITE 6: note = alpha-methyl-2-fluoro-L-phenylalanine; SITE 13: note = alpha-methyl-leucine; SITE 17: note = Lysine is chemically modified through conjugation of the epsilon-amino group of the Lysine side chain with (2-[2-(2-Amino-ethoxy)-et)) [Example 417]
Reply | 386

Ask | Request: YXQGTXTSDYXSXLDXKAQXXFIEXLLEGGPSSGEPPPE (synthetic construct; SITE 2: note = 2-Aminoisobutyric Acid; SITE 6: note = alpha-methyl-L-phenylalanine; SITE 11: note = alpha-methyl-L-serine; SITE 13: note = alpha-methyl-leucine; SITE 16: note = L-ornithine; SITE 17: note = Lysine is chemically modified through conjugation of the epsilon-amino gr) [Example 389]
Reply | 889

Source of measurements: patent US20240270821A1
